These entries and their values trace back to ChEMBL document CHEMBL5053500.

# Protocol: Selectivity index, ratio of CC50 for cytotoxicity against BALB/c mouse peritoneal macrophages to IC50 for antileishmanial activity against Leishmania amazonensis (MHOM/BR/76/MA-76) promastigotes
# Format: toxicity
# Experimental context: read-out: Ratio CC50/IC50
Readout: selectivity ratio
Answer using only a numeral; do not append any unit.

Item: OC(c1ccc(Br)cc1)c1cn(-c2ccc(F)cc2)nn1 (configuration not stated) | selectivity ratio: 4

Item: COC(=O)c1ccc(-n2cc(C(O)c3ccccc3Br)nn2)cc1 (configuration not stated) | selectivity ratio: 10.7

Item: O=c1ccc2cc(-n3cc(C(O)c4ccccc4Br)nn3)ccc2o1 (configuration not stated) | selectivity ratio: 4.27

Item: CC(=O)c1ccc(-n2cc(C(O)c3ccccc3-c3ccccc3)nn2)cc1 (configuration not stated) | selectivity ratio: 4.12

Item: OC(c1ccc(Br)cc1)c1cn(-c2ccc(Br)cc2)nn1 (configuration not stated) | selectivity ratio: 5.41

Item: CCCCCCCCCCCCCCCCOP(=O)([O-])OCC[N+](C)(C)C [MILTEFOSINE] | selectivity ratio: 21.1

====

Field: selectivity ratio. Provide a value for each of the molecules that follow.
# Protocol: Selectivity index, ratio of CC50 for cytotoxicity against BALB/c mouse peritoneal macrophage to IC50 for antileishmanial activity against Leishmania amazonensis (MHOM/BR/76/MA-76) intracellular amastigotes infected in BALB/c mouse peritoneal macrophages
# Type: toxicity, cell-based
# Experimental context: read-out: Ratio CC50/IC50
Answer using only a numeral; do not append any unit.

Item: OC(c1ccc(Br)cc1)c1cn(-c2ccc(Br)cc2)nn1 (stereo not drawn) | selectivity ratio: 20.5

Item: COC(=O)c1ccc(-n2cc(C(O)c3ccccc3Br)nn2)cc1 (stereo not drawn) | selectivity ratio: 8.03

Item: CCCCCCCCCCCCCCCCOP(=O)([O-])OCC[N+](C)(C)C | selectivity ratio: 33.2

====

Field: CC50 at 24 h. Provide a value for each of the compounds that follow.
# Protocol: Cytotoxicity against BALB/c mouse peritoneal macrophages assessed as reduction in cell viability incubated for 24 hrs by MTT assay
# Assay type: cell-based, Peritoneal macrophage

Item: OC(c1ccccc1)c1cn(-c2ccc(Br)cc2)nn1 (stereo unspecified) | CC50 at 24 h: > 400 µM

Item: O=[N+]([O-])c1ccccc1C(O)c1cn(-c2ccc(Br)cc2)nn1 (stereo unspecified) | CC50 at 24 h: > 400 µM

Item: OC(c1cn(-c2ccc(Br)cc2)nn1)c1ccccc1F (stereo unspecified) | CC50 at 24 h: > 400 µM

Item: COC(=O)c1ccc(-n2cc(C(O)c3ccccc3Br)nn2)cc1 (stereo unspecified) | CC50 at 24 h: 297 µM

Item: OC(c1cn(-c2ccc(Br)cc2)nn1)c1ccccc1Br (stereo unspecified) | CC50 at 24 h: 313 µM

Item: CCCCCCCCCCCCCCCCOP(=O)([O-])OCC[N+](C)(C)C [MILTEFOSINE] | CC50 at 24 h: 169 µM

====

# Protocol: Cytotoxicity against human CCD-1072Sk cells assessed as reduction in cell viability measured after 24 hrs by MTT assay
# Format: cell-based
Readout: CC50 at 24 h (µM)
Numeric only. Scale: µM

Item: CCCCCCCCCCCCCCCCOP(=O)([O-])OCC[N+](C)(C)C | CC50 at 24 h: 191

====

# Protocol: Cytotoxicity against BALB/c mouse peritoneal macrophages assessed as reduction in cell viability incubated for 24 hrs by MTT assay
# Assay type: cell-based, Peritoneal macrophage
Field: CC50 at 24 h. Provide a value for each of the molecules that follow.
Numeric only. Scale: µM

Item: CC(=O)c1ccc(-n2cc(C(O)c3ccccc3-c3ccccc3)nn2)cc1 (stereo unspecified) | CC50 at 24 h: 234

Item: O=c1ccc2cc(-n3cc(C(O)c4ccccc4Br)nn3)ccc2o1 (stereo unspecified) | CC50 at 24 h: 348

Item: OC(c1ccc(Br)cc1)c1cn(-c2ccc(F)cc2)nn1 (stereo unspecified) | CC50 at 24 h: 182

Item: OC(c1ccc(Br)cc1)c1cn(-c2ccc(Br)cc2)nn1 (stereo unspecified) | CC50 at 24 h: 84

Item: O=c1ccc2cc(-n3cc(C(O)c4ccccc4-c4ccccc4)nn3)ccc2o1 (stereo unspecified) | CC50 at 24 h: 141

====

Field: selectivity ratio. Provide a value for each of the compounds that follow.
# Protocol: Selectivity index, ratio of CC50 for cytotoxicity against BALB/c mouse peritoneal macrophages to IC50 for antileishmanial activity against Leishmania amazonensis (MHOM/BR/76/MA-76) promastigotes
# Type: toxicity
# Experimental context: read-out: Ratio CC50/IC50

Item: COC(=O)c1ccc(-n2cc(C(O)c3cccnc3-c3ccccc3)nn2)cc1 (stereo unspecified) | selectivity ratio: > 4.17

Item: O=c1ccc2cc(-n3cc(C(O)c4ccccc4-c4ccccc4)nn3)ccc2o1 (stereo unspecified) | selectivity ratio: < 0.7

Item: OC(c1cn(-c2ccc(Br)cc2)nn1)c1ccccc1F (stereo unspecified) | selectivity ratio: > 3.62

Item: OC(c1ccccc1)c1cn(-c2ccc(Br)cc2)nn1 (stereo unspecified) | selectivity ratio: > 2

Item: O=[N+]([O-])c1ccccc1C(O)c1cn(-c2ccc(Br)cc2)nn1 (stereo unspecified) | selectivity ratio: > 2.1

Item: OC(c1cn(-c2ccc(Br)cc2)nn1)c1ccccc1Br (stereo unspecified) | selectivity ratio: < 1.56
